# Tested on: Acinetobacter baumannii
# Description: MICs of the lipopeptides (trifluoroacetic acid salt, TFA) were determined by broth microdilution in cation-adjusted Mueller-Hinton broth (CAMHB) (Oxoid Australia, Thebarton, SA, Australia) according to Clinical and Laboratory Standards Institute standards (Clinical and Laboratory Standards Institute. Performance standards for antimicrobial susceptibility testing; eighteenth informational supplement M100-S18. Wayne, Pa., 2008). Polymyxin B (sulphate) was employed as control. […]
Positions of bridges follow the written chain, without caps; N, C: chain ends. Non-standard residues stand in square brackets, D forms with d. Residues, ends and D or L forms follow the SMILES beside them. *: point of attachment. Benzoyl(3-CF3) = O=C(c1cccc(C(F)(F)F)c1)*; Octanoyl = CCCCCCCC(=O)*; Orn = NCCC[C@H](N)C(=O)O; Dab = NCC[C@H](N)C(=O)O; Dap = NC[C@H](N)C(=O)O
property: Minimum inhibitory concentration, Ab A ATCC 17978 (mg/L)
# unit: mg/L | format: bare number

molecule	unit	reported
C[C@@H]1NC(=O)[C@@H](Cc2ccccc2)NC(=O)[C@H](CCN)NC(=O)[C@@H](NC(=O)[C@H](CN)NC(=O)[C@@H](NC(=O)[C@H](CCN)NC(=O)c2cccc(C(F)(F)F)c2)[C@@H](C)O)CCNC(=O)[C@H]([C@@H](C)O)NC(=O)[C@H](CCN)NC(=O)[C@H](CCN)NC1=O [Compound 126] ({Benzoyl(3-CF3)}-[Dab]T[Dap][Dab][Dab][dF]A[Dab][Dab]T; lactam 4-C)	mg/L	1

Continue with the next molecule.
Prompt line: Reported Minimum inhibitory concentration, Ab A ATCC 17978, molecule CCCCCCCC(=O)N[C@@H](CCN)C(=O)N[C@H](C(=O)N[C@@H](CCCN)C(=O)N[C@H]1CCNC(=O)[C@H]([C@@H](C)O)NC(=O)[C@H](CCN)NC(=O)[C@H](CCN)NC(=O)[C@H]([C@@H](C)O)NC(=O)[C@@H](CC(C)C)NC(=O)[C@H](CCN)NC1=O)[C@@H](C)O [Compound 34] (Octanoyl-[Dab]T[Orn][Dab][Dab][dL]T[Dab][Dab]T; lactam 4-C) : ____
Response line: 2

* * *

# assay.text: Nephrotoxicity in a mouse model (kidney histology score)
# Format: in vivo
# protocol.conditions: mice, subcutaneous 12 mg base/kg, 6 doses in one day every 2 h; kidney ~20 h after last dose; product of percentage score and grade score
Positions of bridges follow the written chain, without caps; N, C: chain ends. Non-standard residues stand in square brackets, D forms with d. Residues, ends and D or L forms follow the SMILES beside them. *: point of attachment. Benzoyl(3,5-Cl2) = O=C(c1cc(Cl)cc(Cl)c1)*; Phenylacetyl(3-Cl) = O=C(Cc1cccc(Cl)c1)*; Benzoyl(2,3-Cl2) = O=C(c1cccc(Cl)c1Cl)*; Benzoyl(3-Cl) = O=C(c1cccc(Cl)c1)*; X23 = O=C(c1c(Cl)cc(Cl)cc1Cl)*; Dab = NCC[C@H](N)C(=O)O; Abu = CC[C@H](N)C(=O)O; Dap = NC[C@H](N)C(=O)O
// Max Overall Kidney Histology Score lookup, one value per entry
Reply briefly: the number, and no unit.

Reference set (4 entries):
compound	reported
CC[C@@H]1NC(=O)[C@@H](CC(C)C)NC(=O)[C@H](CCN)NC(=O)[C@@H](NC(=O)[C@H](CN)NC(=O)[C@@H](NC(=O)[C@H](CCN)NC(=O)c2cccc(Cl)c2)[C@@H](C)O)CCNC(=O)[C@H]([C@@H](C)O)NC(=O)[C@H](CCN)NC(=O)[C@H](CCN)NC1=O [Compound 88] ({Benzoyl(3-Cl)}-[Dab]T[Dap][Dab][Dab][dL][Abu][Dab][Dab]T; lactam 4-C)	0.0
CC[C@@H]1NC(=O)[C@@H](CC(C)C)NC(=O)[C@H](CCN)NC(=O)[C@@H](NC(=O)[C@H](CN)NC(=O)[C@@H](NC(=O)[C@H](CCN)NC(=O)Cc2cccc(Cl)c2)[C@@H](C)O)CCNC(=O)[C@H]([C@@H](C)O)NC(=O)[C@H](CCN)NC(=O)[C@H](CCN)NC1=O [Compound 79] ({Phenylacetyl(3-Cl)}-[Dab]T[Dap][Dab][Dab][dL][Abu][Dab][Dab]T; lactam 4-C)	5.0
CC[C@@H]1NC(=O)[C@@H](CC(C)C)NC(=O)[C@H](CCN)NC(=O)[C@@H](NC(=O)[C@H](CN)NC(=O)[C@@H](NC(=O)[C@H](CCN)NC(=O)c2cccc(Cl)c2Cl)[C@@H](C)O)CCNC(=O)[C@H]([C@@H](C)O)NC(=O)[C@H](CCN)NC(=O)[C@H](CCN)NC1=O [Compound 90] ({Benzoyl(2,3-Cl2)}-[Dab]T[Dap][Dab][Dab][dL][Abu][Dab][Dab]T; lactam 4-C)	0.0
CC[C@@H]1NC(=O)[C@@H](CC(C)C)NC(=O)[C@H](CCN)NC(=O)[C@@H](NC(=O)[C@H](CN)NC(=O)[C@@H](NC(=O)[C@H](CCN)NC(=O)c2cc(Cl)cc(Cl)c2)[C@@H](C)O)CCNC(=O)[C@H]([C@@H](C)O)NC(=O)[C@H](CCN)NC(=O)[C@H](CCN)NC1=O [Compound 96] ({Benzoyl(3,5-Cl2)}-[Dab]T[Dap][Dab][Dab][dL][Abu][Dab][Dab]T; lactam 4-C)	2.0

We next turn to a different compound, shown below.
Prompt line: So what does the record say about Max Overall Kidney Histology Score for CC[C@@H]1NC(=O)[C@@H](CC(C)C)NC(=O)[C@H](CCN)NC(=O)[C@@H](NC(=O)[C@H](CN)NC(=O)[C@@H](NC(=O)[C@H](CCN)NC(=O)c2c(Cl)cc(Cl)cc2Cl)[C@@H](C)O)CCNC(=O)[C@H]([C@@H](C)O)NC(=O)[C@H](CCN)NC(=O)[C@H](CCN)NC1=O [Compound 95] (X23-[Dab]T[Dap][Dab][Dab][dL][Abu][Dab][Dab]T; lactam 4-C) ?
Response line: 0.0

* * *

# Test system: Acinetobacter baumannii
Positions of bridges follow the written chain, without caps; N, C: chain ends. Non-standard residues stand in square brackets, D forms with d. Residues, ends and D or L forms follow the SMILES beside them. *: point of attachment. X8 = O=C(c1ccc(C(F)(F)F)cc1Cl)*; Octanoyl = CCCCCCCC(=O)*; Dab = NCC[C@H](N)C(=O)O; Abu = CC[C@H](N)C(=O)O; Dap = NC[C@H](N)C(=O)O
property: Minimum inhibitory concentration, Ab A ATCC 17978 (µg/mL)
// return numeric value only (unit: µg/mL, not printed)

compound	unit	reported
CC[C@@H]1NC(=O)[C@@H](CC(C)C)NC(=O)[C@H](CCN)NC(=O)[C@@H](NC(=O)[C@H](CN)NC(=O)[C@@H](NC(=O)[C@H](CCN)NC(=O)c2ccc(C(F)(F)F)cc2Cl)[C@@H](C)O)CCNC(=O)[C@H]([C@@H](C)O)NC(=O)[C@H](CCN)NC(=O)[C@H](CCN)NC1=O [Compound 109] (X8-[Dab]T[Dap][Dab][Dab][dL][Abu][Dab][Dab]T; lactam 4-C)	µg/mL	1

Next up:
Prompt line: Please give the measured Minimum inhibitory concentration, Ab A ATCC 17978 for this compound: CCCCCCCC(=O)N[C@@H](CCN)C(=O)N[C@H](C(=O)N[C@@H](CN)C(=O)N[C@H]1CCNC(=O)[C@H]([C@@H](C)O)NC(=O)[C@H](CCN)NC(=O)[C@H](CCN)NC(=O)[C@H](C(C)C)NC(=O)[C@@H](CC(C)C)NC(=O)[C@H](CCN)NC1=O)[C@@H](C)O [Compound 36] (Octanoyl-[Dab]T[Dap][Dab][Dab][dL]V[Dab][Dab]T; lactam 4-C)
Response line: 0.5

* * *

Notes on Minimum inhibitory concentration, Ec FADDI-EC001 obtained with Enterobacter cloacae.
Positions of bridges follow the written chain, without caps; N, C: chain ends. Non-standard residues stand in square brackets, D forms with d. Residues, ends and D or L forms follow the SMILES beside them. *: point of attachment. Phenylacetyl(4-Cl) = O=C(Cc1ccc(Cl)cc1)*; X7 = O=C(c1cc(F)cc(C(F)(F)F)c1)*; Octanoyl = CCCCCCCC(=O)*; Dab = NCC[C@H](N)C(=O)O; Abu = CC[C@H](N)C(=O)O; Dap = NC[C@H](N)C(=O)O; Hexanoyl = CCCCCC(=O)*
Give the value, in units of µg/mL, as a plain number.

molecule	tested.system	reported
CCCCCC(=O)N[C@@H](CCN)C(=O)N[C@H](C(=O)N[C@@H](CN)C(=O)N[C@H]1CCNC(=O)[C@H]([C@@H](C)O)NC(=O)[C@H](CCN)NC(=O)[C@H](CCN)NC(=O)[C@H](CC)NC(=O)[C@@H](CC(C)C)NC(=O)[C@H](CCN)NC1=O)[C@@H](C)O [Compound 68] (Hexanoyl-[Dab]T[Dap][Dab][Dab][dL][Abu][Dab][Dab]T; lactam 4-C)	Enterobacter cloacae	0.25
CC[C@@H]1NC(=O)[C@@H](CC(C)C)NC(=O)[C@H](CCN)NC(=O)[C@@H](NC(=O)[C@H](CN)NC(=O)[C@@H](NC(=O)[C@H](CCN)NC(=O)c2cc(F)cc(C(F)(F)F)c2)[C@@H](C)O)CCNC(=O)[C@H]([C@@H](C)O)NC(=O)[C@H](CCN)NC(=O)[C@H](CCN)NC1=O [Compound 108] (X7-[Dab]T[Dap][Dab][Dab][dL][Abu][Dab][Dab]T; lactam 4-C)	Enterobacter cloacae	1
CC[C@@H]1NC(=O)[C@@H](CC(C)C)NC(=O)[C@H](CCN)NC(=O)[C@@H](NC(=O)[C@H](CN)NC(=O)[C@@H](NC(=O)[C@H](CCN)NC(=O)Cc2ccc(Cl)cc2)[C@@H](C)O)CCNC(=O)[C@H]([C@@H](C)O)NC(=O)[C@H](CCN)NC(=O)[C@H](CCN)NC1=O [Compound 77] ({Phenylacetyl(4-Cl)}-[Dab]T[Dap][Dab][Dab][dL][Abu][Dab][Dab]T; lactam 4-C)	Enterobacter cloacae	0.5

Prompt line: Query Minimum inhibitory concentration, Ec FADDI-EC001 on Enterobacter cloacae for CCCCCCCC(=O)N[C@@H](CCN)C(=O)N[C@H](C(=O)N[C@@H](CN)C(=O)N[C@H]1CCNC(=O)[C@H]([C@@H](C)O)NC(=O)[C@H](CCN)NC(=O)[C@H](CCN)NC(=O)[C@H]([C@@H](C)O)NC(=O)[C@@H](Cc2ccccc2)NC(=O)[C@H](CCN)NC1=O)[C@@H](C)O [Compound 129] (Octanoyl-[Dab]T[Dap][Dab][Dab][dF]T[Dab][Dab]T; lactam 4-C)
Response line: 0.5

Just for reference, patent USRE48335E1 is where these values come from.
